- assay system: T1, Y2 receptor (UniProt P49146 1-381, limits assumed)
- T1 sequence (looked up): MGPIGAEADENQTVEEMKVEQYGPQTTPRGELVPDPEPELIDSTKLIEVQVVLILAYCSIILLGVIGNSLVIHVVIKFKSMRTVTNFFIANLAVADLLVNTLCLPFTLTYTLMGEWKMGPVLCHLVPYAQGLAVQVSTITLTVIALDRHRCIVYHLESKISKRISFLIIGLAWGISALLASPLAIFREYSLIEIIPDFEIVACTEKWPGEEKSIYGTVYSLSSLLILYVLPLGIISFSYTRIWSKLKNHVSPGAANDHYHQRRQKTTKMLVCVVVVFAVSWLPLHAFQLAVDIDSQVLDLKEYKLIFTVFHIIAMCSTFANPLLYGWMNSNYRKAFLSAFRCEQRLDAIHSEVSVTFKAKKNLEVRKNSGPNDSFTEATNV
- method notes: cell-based or functional assay
*1 amine or outer side, *2 acyl side, *3 side chain or, on linkers, in order; H or OH if unused. Where no end group is shown, it is not given here. Side-chain parts run from the residue outwards. The star is where a group is joined. C20 diacid = O=C(O)CCCCCCCCCCCCCCCCCCC(=O)*; C18 diacid = O=C(O)CCCCCCCCCCCCCCCCC(=O)*; γGlu = O=C(O)[C@H](CCC(=O)[*:2])N[*:1]; Trx = NC[C@H]1CC[C@H](C(=O)O)CC1; AEEA = NCCOCCOCC(=O)O
outcome measure: Y2 cAMP EC50

These solved cases illustrate the format of a correct answer.
binder | Y2 cAMP EC50
PLEPVYPGDNATPEQLAQYAADLRK([AEEA-AEEA-γGlu-Trx-C20 diacid])YINLLTRPRY (ends and bridges not checked) | > 1000 nM
{C18 diacid-γGlu-AEEA-AEEA}-PLEPVYPGDNATPEQLAQYAADLRRYINLLTRPRY (ends and bridges not checked) | > 1000 nM
PLEPVYPGDNATPEQLAQYAADLRRYINLLTK([AEEA-AEEA-γGlu-Trx-C20 diacid])PRY (ends and bridges not checked) | > 1000 nM
APLEPVYPGNDAK([AEEA-AEEA-γGlu-Trx-C20 diacid])PEQLAQYAADLRRYINLVTRPRY (ends and bridges not checked) | 92 nM
PLEPVYPGDNATPEQLK([AEEA-AEEA-γGlu-C18 diacid])QYAADLRRYINLLTRPRY (ends and bridges not checked) | > 1000 nM

Dear colleague, I am looking for the recorded Y2 cAMP EC50 of the following binder: PLEPVYPGDNATPEQLAQYAADLK([AEEA-AEEA-γGlu-Trx-C20 diacid])RYINLLTRPRY (ends and bridges not checked)
> 1000 nM

Moving on to PLEPVYPGK([AEEA-AEEA-γGlu-Trx-C20 diacid])NATPEQLAQYAADLRRYINLLTRQRY (ends and bridges not checked)
25 nM

Moving on to APLEPVYPGDNAK([AEEA-AEEA-γGlu-Trx-C20 diacid])PEQLAQYAADLRRYIQLLTRPRY (ends and bridges not checked)
> 1000 nM

Moving on to PLEPVYPGDNATPEQLK([AEEA-AEEA-γGlu-Trx-C20 diacid])QYAADLRRYINLLTRPRY (ends and bridges not checked)
> 1000 nM
